Target: T1, L-selectin (LS-Rg) (Homo sapiens, UniProt P14151 P14151:39-332)
T1 chain: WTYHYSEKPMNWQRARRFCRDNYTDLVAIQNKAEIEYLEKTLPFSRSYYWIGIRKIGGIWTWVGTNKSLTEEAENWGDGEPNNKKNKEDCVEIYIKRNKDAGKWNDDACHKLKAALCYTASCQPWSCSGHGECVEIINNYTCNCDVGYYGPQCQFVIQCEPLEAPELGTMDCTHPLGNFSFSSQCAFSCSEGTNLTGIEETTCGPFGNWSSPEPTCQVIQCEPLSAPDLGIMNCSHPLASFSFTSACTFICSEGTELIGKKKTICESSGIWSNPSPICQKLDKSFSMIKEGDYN
Assay: filter; room temp; 1.8 nM at 37 C
Conditions: tags: human IgG2 Fc fusion (provided by A. Varki); label: 32P
property-measured: pKd
Quick note: pKd values are minus log10 of concentrations in mol/L.

INPUT: State its pKd for this binder: 181 (ssDNA) DNA: CTACCTACGATCTGACTAGCCATCAAGGACTTTGCCCGAAACCCTAGGTTCACGTGTGGGGCTTACTCTCATGTAGTTCC
OUTPUT: 10.08
